Molecular target: farnesyl-protein transferase (FPTase) (Homo sapiens, UniProt P49354+P49356)
Assay: in vitro FPTase inhibition, H-Ras as substrate for farnesylation
Format: biochemical
Conditions: H-Ras used as substrate for farnesylation
attribute measured: IC50 (nM)

compound: c1cncc(CN2C(=NCCCn3ccnc3)c3cccc4cccc2c34)c1 [Example 9]
units of measure: nM
IC50: 2000

compound: CN1C(=NCCCn2ccnc2)c2cccc3c(CO)ccc1c23 [Example 3]
units of measure: nM
IC50: 2500

compound: CCCCCCCCN(CCCn1ccnc1)C1=Nc2cccc3cccc1c23 [Example 1]
units of measure: nM
IC50: 1200

[a] c1cc2c3c(cccc3c1)C(N1CCC(Cn3ccnc3)CC1)=N2 [Example 17]
[b] c1ccc(CCCN2C(=NCCCn3ccnc3)c3cccc4cccc2c34)cc1 [Example 11]
[c] Clc1ccc(CN2C(=NCCCn3ccnc3)c3cccc4c(I)ccc2c34)cc1 [Example 20]
I would appreciate it if you could sort these 3 compounds by IC50, starting from the smallest number. Thanks in advance for listing the labels in the requested order. b, c, a
(b: 600 nM, c: 900 nM, a: 2000 nM)
